- Measured target: HIV-1 isolate 77 envelope (HIV-1)
- Assay explanation: cell-based or functional assay
Readout label: IC50, acute HIV-1 infection of PM1 cells (p24, day 5) (nM)
Provide only the numeric value, understood in nM.

1. XNLHFCQLRCKSLGLLGRCAXTFCACV (not fully specified; N-terminal thiopropionic acid (TPA) at position 1; (D)Pro at 21; C-terminal amide, optimized mini-protein, Phe at 23; unlabelled monomer; also called B4T) [CD4M48] : 250

Challenge: For the binder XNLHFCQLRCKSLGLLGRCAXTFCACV (not fully specified; N-terminal thiopropionic acid (TPA) at position 1; (D)Pro at 21; C-terminal amide; Lys11 carries a mercapto group ligated to a maleimido group of a polylysine construct with 100 Å PEGylated linkers, dimer of CD4M48-SH on a polylysine construct) [CD4M48D100] , what IC50, acute HIV-1 infection of PM1 cells (p24, day 5) is on record?
Response given: 3

The measured values listed here are drawn from patent US20090285798A1.
